Reported EC50 of shedding inhibition is given for each of the following binders.
study target: T1, MICA*008 on MEL-JUSO cells (human, UniProt Q29983 24-317)
T1 chain: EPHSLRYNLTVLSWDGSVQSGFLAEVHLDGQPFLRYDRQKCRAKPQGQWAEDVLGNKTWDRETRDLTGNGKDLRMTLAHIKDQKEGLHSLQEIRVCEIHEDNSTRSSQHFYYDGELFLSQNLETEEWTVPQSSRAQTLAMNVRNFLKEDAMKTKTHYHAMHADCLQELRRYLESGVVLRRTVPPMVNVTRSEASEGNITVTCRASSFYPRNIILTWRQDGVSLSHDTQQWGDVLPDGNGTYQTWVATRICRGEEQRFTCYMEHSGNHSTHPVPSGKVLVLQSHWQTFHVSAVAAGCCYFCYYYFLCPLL
assay explanation: cell-based or functional assay
Return type: number; implicit unit µg/mL.

Some solved cases for reference:
>  <binder>
32D2 (antibody, V domains shown, Mouse hybridoma antibody; constant regions differ by assay) VH: DVHLVESGGGLVQPGGSRKLSCAASGFTFNTFGMNWVRQAPEKGLEWVAYINSGSNTIYYADTVKGRFTISRDNPKNTLFLQMTSLRSEDTAMYYCTRWEPVTGGFSYWGQGTLVTVSA VL: QIVLTQSPAFKSSSLGERVTMTCTASSSISSSYLHWYQQKPGSSPKLWIYTTSNLASGVPARFSGSGSGTSYSLTISTMEAEDAATYYCHQHHRSPFTFGSGTKVEIK

>  <meas value>
0.0303

$$$$
>  <binder>
6F8.7 (antibody, V domains shown, Mouse hybridoma antibody; constant regions differ by assay) VH: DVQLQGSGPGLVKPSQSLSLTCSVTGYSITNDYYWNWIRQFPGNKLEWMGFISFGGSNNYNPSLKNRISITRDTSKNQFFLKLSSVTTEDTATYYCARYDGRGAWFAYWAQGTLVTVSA VL: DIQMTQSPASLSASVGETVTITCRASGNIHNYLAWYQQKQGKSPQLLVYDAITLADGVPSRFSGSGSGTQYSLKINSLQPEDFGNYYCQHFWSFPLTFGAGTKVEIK

>  <meas value>
0.163

$$$$
>  <binder>
1D5 (antibody, V domains shown, Mouse variable domains; constant regions differ by assay (human IgG1 or mouse IgG2a); also called anti-MIC 1D5) VH: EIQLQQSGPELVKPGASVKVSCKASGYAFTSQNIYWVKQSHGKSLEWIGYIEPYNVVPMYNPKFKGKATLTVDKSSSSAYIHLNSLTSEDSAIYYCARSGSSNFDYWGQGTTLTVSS VL: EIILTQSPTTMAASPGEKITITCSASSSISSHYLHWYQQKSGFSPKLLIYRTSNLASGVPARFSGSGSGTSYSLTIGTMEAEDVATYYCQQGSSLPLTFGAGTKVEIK

>  <meas value>
0.0087

$$$$

--- query ---
Value of EC50 of shedding inhibition reported for the binder 6E12.5 (antibody, V domains shown, Mouse hybridoma antibody; constant regions differ by assay) VH: EVQLVESGGGLVKPGGSLKLSCAASGFTFSDYYMYWVRQTPEKRLEWVATISDGITYTYYSDSVRGRFTISRDNAENTLYLQMSSLKSEDTAMYYCSKGGGSTARGALDFWGQGTSVTVSS VL: DIQMNQSPSSLSASLGDTITITCHASQNIHVWLSWYQQKPGNIPKLLIYGASHLHTGVPSRFSGRGSGTGFTLTISSLQPEDIATYYCLQGQSYPLTFGSGTKVEIK is 0.074
